Tested on: HT-29
Assay: NCI tumour cell line growth inhibition, 48 h
Calls of active or inactive are those of the source. No stated cut-off is given here; in the data, active = GI50 up to about 1.1 µM and inactive = higher.
Overview of reported GI50 across a group of molecules:

Reference set, count: 4
molecule: O=S1(=O)OCCOS(=O)(=O)C1I
GI50: > 100 µM (inactive)

molecule: Cc1ccc(C)c(NC(=O)C(Cc2c[nH]c3ccccc23)NC(=O)OCc2ccccc2)c1 (stereo not given)
GI50: 12.4 µM (inactive)

molecule: CCOC(=O)CCC(C(=O)OCC)n1nc2ccc(Nc3c(C)[n+]([O-])c4ccc(Cl)cc4[n+]3[O-])cc2n1 (stereo not given)
GI50: 30.9 µM (inactive)

molecule: COc1ccc(/N=N/c2c(-c3c(OC)cc4occc4c3OC)[nH]c(=O)c(C#N)c2C)cc1
GI50: > 100 µM (inactive)

Please find the next molecule below.
QUERY: Answer with the recorded GI50 for the molecule listed here: "CNc1ncnc2c1cnn2Cc1cn(CCCCO)nn1"
RESULT: > 100 µM (inactive)

---

System: OVCAR-5
Assay: NCI tumour cell line growth inhibition, 48 h
Active and inactive are the calls of the source. Cut-off read from the data, not from the text of the source: active = GI50 up to about 1.1 µM and inactive = higher.
recorded.metric: GI50

compound: COc1ccc(-c2cc(C(O)C3CCCCN3)c3ccccc3n2)cc1 (stereo not drawn)
GI50: 12 µM (inactive)

compound: C=C(CCC/C(C)=C/C=C/[C@]1(C)CCCc2ccoc21)CC(=O)O
GI50: > 100 µM (inactive)

In the following, a different compound is considered.
QUERY: Determine reported GI50 for "O=C(O)CCSC(=O)Nc1ccccc1" ; test system: OVCAR-5.
RESULT: > 100 µM (inactive)

---

System: 786-0
Assay: NCI tumour cell line growth inhibition, 48 h
Calls of active or inactive are those of the source. Cut-off read from the data, not from the text of the source: active = GI50 up to about 1.1 µM and inactive = higher.
Attribute: GI50

Would you please look over these solved cases?
molecule: Cc1ccc([S+]([O-])(=Nc2ccccc2)C(C(C)C)C(C)(C)Cl)cc1 (stereo not drawn)
GI50: 24.2 µM (inactive)
--
molecule: COc1ccc(C2SC(=N)Nc3c2c(C)nn3C(=O)c2ccncc2)cc1 (stereo not drawn)
GI50: > 100 µM (inactive)
--
molecule: COc1cccc2c(Nc3ccc(S(=O)(=O)NC(C)=O)cc3)c3ccc([N+](=O)[O-])cc3nc12
GI50: 33.3 µM (inactive)
--
molecule: C[C@@H](CC(O)C(O)C(C)(C)O)C1CCC23CC12CCC1[C@@]2(C)CCC(O)C(C)(C)C2CC(OC2OC(CO)C(O)C(O)C2O)[C@]13C (stereo partly drawn)
GI50: > 10 µM (inactive)
--
molecule: OCC(O)C(O)C(O)c1nnn[nH]1 (stereo not drawn)
GI50: > 100 µM (inactive)

QUERY: Note down GI50 recorded for CC1CCC2(C(=O)O)CCC3(C)C(=CCC4C5(C)CC(O)C(O)C(C)(CO)C5C(O)CC43C)C2C1C (stereo not drawn)
RESULT: 3.29 µM (inactive)

QUERY: Retrieve GI50 measured for "COc1ccc2c3ccc4c(c3n(C)c2c1)C(=O)c1ccccc1C4=O" and print it.
RESULT: 13.4 µM (inactive)

---

The entries below come with measured GI50 values attached.
Test system: UO-31
Experiment: NCI tumour cell line growth inhibition, 48 h
Active and inactive are the calls of the source. No stated cut-off is given here; in the data, active = GI50 up to about 1.1 µM and inactive = higher.

compound: Cn1c(CCC#N)nc2ccc(Br)cc2c1=O
GI50: > 100 µM (inactive)
//
compound: Cc1cc(Cl)ccc1N1C(=O)C(=O)C(c2nc3ccccc3o2)C(=O)C1=O
GI50: > 100 µM (inactive)
//
compound: CC(C)[Si](OC1=C(c2ccccc2)C(NC(=O)/C=C/c2ccc([N+](=O)[O-])cc2)CCC1)(C(C)C)C(C)C (stereo unspecified)
GI50: > 100 µM (inactive)
//
compound: COC(=O)C(Cc1nc2ccccc2nc1O)C(=O)C(=O)Nc1cc(C(F)(F)F)ccc1Cl (stereo unspecified)
GI50: 15.5 µM (inactive)
//
compound: N=C(N)NCCCC(NC(=O)OCCCCn1ccc(N)nc1=O)C(=O)O (stereo unspecified)
GI50: > 100 µM (inactive)
//
compound: CC(=O)OC(=O)O/C=C\CCl
GI50: > 100 µM (inactive)
//
compound: O=C1CCCCC/C1=C\c1ccccc1
GI50: > 100 µM (inactive)
//
compound: CCOC(=O)c1cc(C)nc2c1c(=O)n(-c1ccccc1)c(=O)n2CCCCN1CCN(c2ncccn2)CC1
GI50: 38.5 µM (inactive)

QUERY: Note GI50 for the compound shown: CC1C(c2ccccc2)OP(=O)(OC(C#N)c2ccccc2)N1C (stereo unspecified)
RESULT: 97.3 µM (inactive)

QUERY: Read the entry Cc1ccc(S(=O)(=O)OC2C(C3COC(C)(C)O3)OC3OC(C)(C)OC32)cc1 (stereo unspecified) and write its reported GI50.
RESULT: > 100 µM (inactive)

QUERY: Provide GI50 value for the following compound: c1ccc2c(c1)c1c3n2-c2cc(on2)C3CCC1 (stereo unspecified)
RESULT: > 100 µM (inactive)

QUERY: Indicate the recorded GI50 value for this compound: "c1ccc([P+](c2ccccc2)(c2ccccc2)C2c3ccccc3-c3ccccc32)cc1"
RESULT: 2.67 µM (inactive)

QUERY: Indicate its recorded GI50; the compound in question is C=C(Cl)C(Cl)(CBr)CCC(Cl)C(C)(C)Cl (stereo unspecified)
RESULT: 2.3 µM (inactive)

QUERY: Indicate the recorded GI50 value for this compound: CC1CC(=O)Nc2ccc(Cl)cc2N1C(=O)CN1CCC(CCCCN(C)C)CC1 (stereo unspecified)
RESULT: > 100 µM (inactive)

QUERY: Please look at this compound and report its GI50: CCOc1cc(C2CC(c3ccc(NS(=O)(=O)c4cc([N+](=O)[O-])ccc4C)cc3)=NN2S(=O)(=O)c2cc([N+](=O)[O-])ccc2C)ccc1O (stereo unspecified)
RESULT: 32.6 µM (inactive)

QUERY: Answer with the recorded GI50 of "COc1ccc(O)c2c(=O)ccccc12" only.
RESULT: 78.2 µM (inactive)

---

Tested on: HL-60
Test: NCI tumour cell line growth inhibition, 48 h
Activity calls are given as the source filed them. Rule as the data show it: active = GI50 up to about 1.1 µM and inactive = higher.
recorded.metric: GI50

compound: CC1=CC(=O)/C(=C/NC(=S)Nc2ccc(S(N)(=O)=O)cc2)C(=O)O1
recorded.metric: GI50
recorded.result: > 100 µM (inactive)

QUERY: Fill in reported GI50 for this entry: Brc1ccc(C2CC(c3cccc4ccccc34)=Nc3ccccc3S2)cc1 (stereo not drawn)
RESULT: 26.4 µM (inactive)

QUERY: Give recorded GI50. CC(=O)OC1COC(N2C(=O)C(=O)c3cc(Br)c([N+](=O)[O-])cc32)C(OC(C)=O)C1OC(C)=O (stereo not drawn)
RESULT: 31 µM (inactive)

QUERY: Give recorded GI50. "c1cc(-c2ccc(-c3ccsc3)s2)cs1"
RESULT: 19.2 µM (inactive)

QUERY: Indicate its recorded GI50; the compound in question is CC1CCCc2c1c1ccc3c(O)cccc3c1oc2=O (stereo not drawn)
RESULT: > 100 µM (inactive)

QUERY: In one line, give reported GI50 of the entry "Sc1nn2c(COc3cc(Cl)c(OCc4nnc5sc(S)nn45)cc3Cl)nnc2s1" .
RESULT: 37.8 µM (inactive)

QUERY: Provide only the value of recorded GI50 for COc1cccc2c1C(CO)N1C(C#N)C3CC(C(=O)O)C(C1C2)N3C (stereo not drawn)
RESULT: 1.52 µM (inactive)

QUERY: Specify GI50 for CC(C)=CCc1c(O)c(CC=C(C)C)c2oc3c(c(=O)c2c1O)C(C=C(C)C)Oc1cc(O)ccc1-3 (stereo not drawn) and stop.
RESULT: 5.85 µM (inactive)

---

Test system: NCI/ADR-RES
Test: NCI tumour cell line growth inhibition, 48 h
Active and inactive are the calls of the source. No stated cut-off is given here; in the data, active = GI50 up to about 1.1 µM and inactive = higher.
One label from this list, please: 1 = active, 0 = inactive

Here's what some known entries look like.
molecule: Cn1c2ccccc2c(=O)c2c(O)cc3c(c21)C=CC(C)(C)O3 [NORACRONYCINE]
group.label: 0
//
molecule: COc1ccc(N2C(=O)C3c4[nH]c5ccc(OCc6ccccc6)cc5c4C4CCC(C(C)(C)C)CC4C3C2=O)cc1 (stereo not drawn)
group.label: 0
//
molecule: CCOC(=O)C1(Cc2ccccc2)CCN(C(=O)c2ccccc2)C2C1C2(Cl)Cl (stereo not drawn)
group.label: 0
//
molecule: O=C(c1ccccc1)N1CCC(Nc2nccs2)O1 (stereo not drawn)
group.label: 0
//
molecule: O=C(NC(Cc1c[nH]cn1)C(=O)N1CCCC1)C1CCCC1 (stereo not drawn)
group.label: 0
//
molecule: CC(=O)OC(C(=O)NNC(=O)OC(C)(C)C)c1ccccc1 (stereo not drawn)
group.label: 0
//
molecule: COc1ccc(C2C3=C(COC3=O)Oc3cc4c(cc32)OCO4)cc1OC (stereo not drawn)
group.label: 1
//
molecule: COc1cccc(/C=N/NC(=O)CSCC(=O)N/N=C/c2cccc(OC)c2OC)c1OC
group.label: 0

Alright, here's another molecule for you.
QUERY: For this molecule, state the assay outcome: COc1ccc(C2SC(=N)Nc3c2c(C)nn3C(=O)c2ccncc2)cc1 (stereo not drawn)
RESULT: 0
